# Test system: MOLT-4 leukemia
# Assay Procedure: NCI tumour cell line growth inhibition, 48 h; in the data active = GI50 below about 0.43 µM; inactive = the rest
Labels: active, inactive

{"Compound": "O=C(/C=C\\n1cnc(-c2cc(C(F)(F)F)cc(C(F)(F)F)c2)n1)N1CC(F)(F)C1", "Class Label": "active"}
{"Compound": "COc1cc(CN(c2ccc(C)cc2)C2OC(=O)c3ccccc32)cc(OC)c1OC (configuration not stated)", "Class Label": "inactive"}
{"Compound": "CC/C(Cc1ccccc1)=C(/c1ccc(O)cc1)c1ccc(OCCN2CCCC2)cc1", "Class Label": "inactive"}
{"Compound": "COc1cc(-c2cc3ncccc3c3[nH]c(=O)c4cccnc4c23)cc(OC)c1OC", "Class Label": "inactive"}
{"Compound": "COc1ccc2c(c1)O/C(=C\\c1cccc(OCC(=O)Nc3nc(C)c(C)s3)c1)C2=O", "Class Label": "inactive"}
{"Compound": "COc1cc2nc(-c3cccc4cccnc34)nc(NC3CCN(Cc4ccccc4)CC3)c2cc1OC", "Class Label": "active"}
{"Compound": "CCc1nc2cc(/C=C/C(=O)NO)ccc2c(=O)n1CCc1ccc(OC)cc1", "Class Label": "inactive"}

Source of measurements: PubChem BioAssay (NCI)
